tested on: MS2 coat protein; test: apparent KD of MS2 coat protein; designed switch direction (-1 OFF switch, 1 ON switch): -1; higher = weaker reporter binding; details: input ligand: FMN 200 uM

{"Sequence Entry": "AGAGUACUGCGAGGAUAUACAUGAGGAUCACCCAUGUAAUAGUGUGAGGCUUUGCCUCACACAAUGUAGAAGGCGCAGUACUCA [Mat - Exclusion NG 2 - Mod of JL - D6] (Eterna round: R96, puzzle: Exclusion NG 2)", "apparent KD of MS2 coat protein / nM": 15.7}
{"Sequence Entry": "AGUCCUAGUCAAGGAUAUACACCGAAGAAAUACGUAGAAGGUGACAUGAGGAUCACCCAUGUAGGGCCUCUGGAAACAGAGGAA [Indiinbi] (Eterna round: R96, puzzle: Exclusion NG 1)", "apparent KD of MS2 coat protein / nM": 208}
{"Sequence Entry": "AUUAUGUUAGGAUAUUAUUUGCCCUACUAAGGCACGAGAAGUAAGAAGGGACAUGAGGAUCACCCAUGUUGGAG [Eternabot (L2) Solution 71] (Eterna round: R97, puzzle: Exclusion 4)", "apparent KD of MS2 coat protein / nM": 30.3}
{"Sequence Entry": "CUGCGUAGAGGAUAUACAUGAGGAUCACCCAUGUGCUAAAUGACUGCAUGCAAAUCGUGUAGAAGGUUGAAGGG [Eternabot (L2) Solution 85] (Eterna round: R97, puzzle: Exclusion 3)", "apparent KD of MS2 coat protein / nM": 34.6}
{"Sequence Entry": "GUACUGACAGGAUAUACAUGAGGAUCACCCAUGUGCCUUAGCGCUACAAAAGUAGCGCGUAGAAGGGUCUGUAC [Omei Ex3 Model Bachelor's Dilema v16] (Eterna round: R97, puzzle: Exclusion 3)", "apparent KD of MS2 coat protein / nM": 22.4}
{"Sequence Entry": "AAGAGCAAGGCAGGAUAUCACAUGAGGAUCACCCAUGUAUCCGAAAGAACAACGCCCGCGUUGUGUGAGAAGGGUCUAUGCAGG [Eternabot solution 10] (Eterna round: R96, puzzle: Exclusion NG 2)", "apparent KD of MS2 coat protein / nM": 370}
{"Sequence Entry": "UAAACCAGAGGAUAUGCGAAUAAAUAAAACUUUUUUUUUUAACAUGAGGAUCACCCAUGUAGAAGGCUGCAAAU [Ex2 #33] (Eterna round: R97, puzzle: Exclusion 2)", "apparent KD of MS2 coat protein / nM": 30}
{"Sequence Entry": "UAACAAGCUUAAAGAUCCUACAUGAGGAUCACCCAUGUGCUCGUCUUGUAACGUACUGUGACGAAAGUCACGGUACG [JL TOV1 3.15] (Eterna round: R97, puzzle: Sensor, turn-off variant 1)", "apparent KD of MS2 coat protein / nM": 521}
{"Sequence Entry": "AAAAACAAGCCCAUGCUCGUCUUAAGAUCGAAAGAUCAAACAUGAGGAUCACCCAUGUGCGAGCAUGGGUGAUCCUC [Sensor v2, turn off variant 2 (JL Turnoff v2 4 - MOD3)] (Eterna round: R96, puzzle: Sensor v2, turn-off variant 2)", "apparent KD of MS2 coat protein / nM": 21.9}
